Attribution: patent US20150086555A1

Consider the following binders; for each one, report its Trimeric HA Binding: RLU.
target: recombinant soluble homotrimeric HA of A/duck/Yangzhou/02/05 (H8N4) (Influenza A virus A/duck/Yangzhou/02/2005(H8N4)); assay: HA microarray, BCC supernatant; details: remark: other sources report otherwise
Give bare numbers, in RLU.

Field: example entries. Status: answers known.
TCN-552 (5249_I23) (antibody, V domains shown) VH: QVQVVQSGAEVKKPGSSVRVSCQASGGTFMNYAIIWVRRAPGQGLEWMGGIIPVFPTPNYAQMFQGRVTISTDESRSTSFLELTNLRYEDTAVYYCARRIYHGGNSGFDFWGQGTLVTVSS VL: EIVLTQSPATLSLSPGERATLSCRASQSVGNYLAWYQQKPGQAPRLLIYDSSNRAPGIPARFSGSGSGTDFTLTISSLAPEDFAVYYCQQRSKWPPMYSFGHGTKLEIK
13100
TCN-542 (5079_A16) (antibody, V domains shown) VH: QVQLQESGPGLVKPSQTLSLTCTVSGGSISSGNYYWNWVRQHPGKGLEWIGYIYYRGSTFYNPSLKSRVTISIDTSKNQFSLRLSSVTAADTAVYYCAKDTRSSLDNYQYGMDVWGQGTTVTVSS VL: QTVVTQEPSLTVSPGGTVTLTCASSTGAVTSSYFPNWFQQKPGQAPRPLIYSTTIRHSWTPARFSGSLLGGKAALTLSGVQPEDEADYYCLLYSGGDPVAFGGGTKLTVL
332

Now consider a different binder.
Provide one value: measured Trimeric HA Binding: RLU of TCN-547 (5092_F11) (antibody, V domains shown) VH: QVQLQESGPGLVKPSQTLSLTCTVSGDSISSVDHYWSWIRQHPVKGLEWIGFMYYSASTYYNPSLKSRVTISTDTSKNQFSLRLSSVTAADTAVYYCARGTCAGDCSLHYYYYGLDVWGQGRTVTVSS VL: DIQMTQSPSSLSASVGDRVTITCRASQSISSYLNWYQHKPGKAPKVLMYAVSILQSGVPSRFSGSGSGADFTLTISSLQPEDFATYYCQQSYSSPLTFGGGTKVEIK
278
